assay: Test 4: toxicity on adult F1 mice, IP; settings: in vivo; 1 mg/mouse (50 mg/kg), IP; read-out: dead mice (converted)
test_readout: mortality
Answer by giving the amount and then stating its unit.

Ask | I am curious: what mortality value has been reported for "CCN(CC)CCCNc1nccc2c(C)c3[nH]c4ccncc4c3cc12" ?
Reply | 33.3%

###

test: Test 4: toxicity on adult F1 mice, IP; settings: mouse, in vivo, ip, 20 mg/kg
test_readout: mortality (%)
Return type: number; implicit unit %.

Ask | I am curious: what mortality value has been reported for "Cc1c2ccncc2c(C)c2c1[nH]c1ccncc12" ?
Reply | 16.7

###

Test: Test 8: acute toxicity in vivo, C3H mice
Details: mouse, C3H, IP, read-out: LD 500
Method: Test 8: Acute toxicity in vivo The products to be tested were injected by the IP route into groups of 10 mice at various dilutions. Each day, the number of dead animals is noted. If the doses are well chosen, a 100% lethal dose and a 50% lethal dose have been able to be defined for each product. This study is limited to two months. Two isogenic mouse strains were systematically used: C3H/He and ICFW.
test_readout: LD50 (mg/kg)
Return type: number; implicit unit mg/kg.

Ask | I am curious: what LD50 value has been reported for "CCN(CC)CCCNc1nccc2c(C)c3[nH]c4ccncc4c3cc12" ?
Reply | 20

###

test: Test 4: toxicity on new-born mice, IP; assay type: in vivo, mouse; conditions: mouse, in vivo, 10 μg: 5 mg/kg, read-out: dead mice (converted)
test_readout: mortality
Answer by giving the amount and then stating its unit.

Ask | I am curious: what mortality value has been reported for Cc1c2cc[n+](C)cc2c(C)c2c1[nH]c1ccc(O)cc12 [HUM, reference compound] ?
Reply | 37.5%

###

Assay: Test 8: acute toxicity in vivo, ICFW mice
Settings: mouse, ip, read-out: LD 500
Protocol: Test 8: Acute toxicity in vivo The products to be tested were injected by the IP route into groups of 10 mice at various dilutions. Each day, the number of dead animals is noted. If the doses are well chosen, a 100% lethal dose and a 50% lethal dose have been able to be defined for each product. This study is limited to two months. Two isogenic mouse strains were systematically used: C3H/He and ICFW.
test_readout: LD50 (mg/kg)
Return type: number; implicit unit mg/kg.

Ask | I am curious: what LD50 value has been reported for "Cc1c2ccncc2c(C)c2c1[nH]c1ccncc12" ?
Reply | 150

###

assay: Test 8: acute toxicity in vivo, C3H mice; settings: mouse, ip, read-out: LD 500
test_readout: LD50 (mg/kg)
Return type: number; implicit unit mg/kg.

Ask | I am curious: what LD50 value has been reported for "Cc1c2ccncc2c(C)c2c1[nH]c1ccncc12" ?
Reply | 100

###

Listed molecules paired with reported time of deaths after drug administration
system: mice; assay: Test 21: toxicity after intraperitoneal injection; details: IP

- molecule: "CCN(CC)CCCNc1nccc2c(C)c3[nH]c4ccncc4c3cc12 [Example 7]"
  time of deaths after drug administration: "4 to 8 days"

Ask | I am curious: what time of deaths after drug administration value has been reported for Cc1c2ccnc(NCCCN(C)C)c2cc2c1[nH]c1ccncc12 [Example 8] ?
Reply | 3 to 5 days

Ask | I am curious: what time of deaths after drug administration value has been reported for Cc1c2ccnc(NCCN(C)C)c2cc2c1[nH]c1ccncc12 [Example 9] ?
Reply | 4 to 6 days

Ask | I am curious: what time of deaths after drug administration value has been reported for CCN(CC)CCCC(C)Nc1nccc2c(C)c3[nH]c4ccncc4c3cc12 (stereo not shown) [Example 10] ?
Reply | 4 to 6 days

Data origin: patent US4444776A
